Molecular target: IFN-gamma (Homo sapiens, UniProt P01579 P01579:24-161)
Sequence (P01579 24-161, one chain of several): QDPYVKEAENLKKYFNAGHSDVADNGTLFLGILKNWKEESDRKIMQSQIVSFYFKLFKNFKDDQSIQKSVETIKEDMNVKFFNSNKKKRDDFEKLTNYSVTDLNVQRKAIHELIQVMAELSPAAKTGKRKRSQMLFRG
Assay: filter; biphasic 4.4/716 nM
Details: tags: Genzyme (Cambridge MA); Upstate Biotechnology for early SELEX rounds; chain copies: 2 inferred
quantityName: Kd (nM)
Hi! Could you send only the number? It should be in nM, unit omitted.

stdin: Which Kd reading was recorded for the binder IFN-gamma 2'F-1 truncate (ssRNA, 2'-F all C and U) RNA: GGGAGGACGAUGCGGACACCGUUAAUCUGAGGCCCUGUCCUAUUCCUUCACGCCUCAGA ?
stdout: 4.4
